# measurement_notes: BV2 cell viability / proliferation (CCK-8, cell count)
# Type: cell-based
# protocol_conditions: mouse; BV2 cells, 24 h; read-out: IC50 against BV2 cell proliferation (cytotoxicity)
result_type: IC50 (µM)
// note: answer is a bare numeric in µM

Prompt: Quick one: IC50 of C=C(C)[C@@]12O[C@@H]1[C@@]1(C)C(=C[C@@H]2O)CC[C@@H](O)[C@@H]1C [Compound 5, dihydrosporogen AO-1] ?
Response: 38

* * *

# Tested on: LPS-stimulated microglia BV2 cells
# measurement_notes: Cellular NO production in LPS-stimulated BV2 microglia
# Format: cell-based
# protocol_conditions: Mus musculus, BV-2; LPS-treated BV2 microglial cells, 24 h; read-out: EC50 in decreasing cellular NO production
result_type: EC50 (µM)
// note: answer is a bare numeric in µM

Prompt: Quick one: EC50 of C=C(C)[C@@]12O[C@@H]1[C@@]1(C)C(=C[C@@H]2O)CC[C@@H](O)[C@@H]1C [Compound 5, dihydrosporogen AO-1] ?
Response: 3.11
